meta.source: patent US10202361B2

System: wheat, winter (winter wheat, Triticum aestivum)
Assay: Test D pre-/postemergence controlled growth environment herbicide test
Assay type: in vivo
Details: Postemergence, 250 g ai/ha, scale 0 to 100
Source text: […]
Measured Plant response rating accompanies every entry in the list below.

# smiles-string, Plant response rating
records = [
    ("Cc1cc(=O)n(-c2ccc(C(F)(F)F)cc2)nc1Cc1ccnc(C(F)(F)F)c1", 15),
    ("COc1cc(=O)n(-c2ccc(F)cc2)nc1Cc1ccnc(C(F)(F)F)c1", 10),
    ("Cc1cc(=O)n(-c2ccc(F)cc2)nc1Oc1ccnc(C(F)(F)F)c1", 15),
    ("Cc1cc(=O)n(-c2ccc(F)cc2)nc1Cc1ccnc(C(F)(F)F)c1", 5),
]
